ASSAYED_SYSTEM: T1, Human CXCR2 (human, UniProt P25025 1-360)
T1 construct: Some cell lines carry an N-terminal 3xHA tag; also called hCXCR2; huCXCR2
T1 sequence: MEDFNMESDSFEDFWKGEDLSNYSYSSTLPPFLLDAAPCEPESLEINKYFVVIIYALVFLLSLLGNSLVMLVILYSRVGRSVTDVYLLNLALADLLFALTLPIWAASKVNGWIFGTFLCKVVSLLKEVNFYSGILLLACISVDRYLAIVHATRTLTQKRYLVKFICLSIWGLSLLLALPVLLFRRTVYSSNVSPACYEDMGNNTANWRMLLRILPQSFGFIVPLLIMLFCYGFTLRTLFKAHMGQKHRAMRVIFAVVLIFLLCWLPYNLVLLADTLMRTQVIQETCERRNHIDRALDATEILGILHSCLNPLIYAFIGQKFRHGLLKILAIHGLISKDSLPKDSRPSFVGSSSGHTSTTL
EXPERIMENT_NOTES: FACS competition vs 3 nM FMAT-Blue Gro-α
QUANTITY: % inhibition of max
Number plus unit, in that order.

Entry CXCR20023 (bispecific antibody, Two different VHH joined by a GlySer linker; also called 163D2-35GS-163E3; not shown: C-terminal c-myc tag and His6 tag coded by pAX100) EVQLVESGGGLVQAGGSLRLSCAASGRTFSDYAMGWFRQAPGKEREFVAAITWNGGRVFYTASVKGRFTISRDNAKNTMYLQMNSLKPEDTAVYYCAADKDRRTDYLGHPVAYWGQGTQVTVSSGGGGSGGGGSGGGGSGGGGSGGGGSGGGGSGGGGSEVQLVESGGGLVQPGGSLRLSCVASGRIFSSNAMGWFRQAPGKEREFVAAITWRSGGSAYYADSAKGRFTISRDNAKNTVYLQMNSLKPEDTAVYYCAAGGSSWLSFPPDYWGQGTQVTVSS , % inhibition of max reported as 99%

Please fill in: % inhibition of max reported for CXCR20015 (other, Two different VHH joined by a GlySer linker; also called 2B2-35GS-137B7; not shown: C-terminal c-myc tag and His6 tag coded by pAX100) EVQLVESGGELVQPGGSLRLSCAASGSILTINAMGWYRQAPGKQRELVVRRTRGGSTTYQDSVKGRFTISADIAKKTMYLQMNSLKPEDTAVYYCMLDDRGGVYWGQGTQVTVSSGGGGSGGGGSGGGGSGGGGSGGGGSGGGGSGGGGSEVQLVESGGGLVQPGGSVRLSCVASGIIFRLSALGWTRQGPGKAREWVAGINSDGTTNYADPVKGRFTISRDNAKNTIYLHMDMLKPEDTAVYYCASGKYRGQGTQVTVSS = 99%

# binder CXCR20032 (bispecific antibody, Biparatopic: two VHH joined by a GlySer linker; also called 2B2-35GS-163D2; not shown: C-terminal c-myc tag and His6 tag coded by pAX100) EVQLVESGGELVQPGGSLRLSCAASGSILTINAMGWYRQAPGKQRELVVRRTRGGSTTYQDSVKGRFTISADIAKKTMYLQMNSLKPEDTAVYYCMLDDRGGVYWGQGTQVTVSSGGGGSGGGGSGGGGSGGGGSGGGGSGGGGSGGGGSEVQLVESGGGLVQAGGSLRLSCAASGRTFSDYAMGWFRQAPGKEREFVAAITWNGGRVFYTASVKGRFTISRDNAKNTMYLQMNSLKPEDTAVYYCAADKDRRTDYLGHPVAYWGQGTQVTVSS ; its % inhibition of max = 100%

Value of measured % inhibition of max for the entry CXCR20014 (bispecific antibody, Biparatopic: two VHH joined by a GlySer linker; also called 97A9-35GS-2B2; 97A9-2B2; not shown: C-terminal c-myc tag and His6 tag coded by pAX100) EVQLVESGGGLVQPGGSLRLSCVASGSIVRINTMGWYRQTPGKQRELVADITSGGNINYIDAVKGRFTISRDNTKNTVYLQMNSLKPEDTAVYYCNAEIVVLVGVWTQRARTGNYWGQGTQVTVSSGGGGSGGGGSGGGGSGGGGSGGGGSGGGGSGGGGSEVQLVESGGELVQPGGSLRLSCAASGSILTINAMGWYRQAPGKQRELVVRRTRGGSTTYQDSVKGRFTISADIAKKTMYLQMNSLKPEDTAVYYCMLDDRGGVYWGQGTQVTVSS : 99.7%

Given item CXCR20026 (bispecific antibody, Biparatopic: two VHH joined by a GlySer linker; also called 163E3-35GS-127D1; 163E3-127D1; not shown: C-terminal c-myc tag and His6 tag coded by pAX100) EVQLVESGGGLVQPGGSLRLSCVASGRIFSSNAMGWFRQAPGKEREFVAAITWRSGGSAYYADSAKGRFTISRDNAKNTVYLQMNSLKPEDTAVYYCAAGGSSWLSFPPDYWGQGTQVTVSSGGGGSGGGGSGGGGSGGGGSGGGGSGGGGSGGGGSEVQLVESGGGLVQAGESLRLSCAASGSTFDFKVMGWYRQPPGKQREGVAAIRLSGNMHYAESVKGRFTISKANAKNTVYLQMNSLRPEDTAVYYCKVNIRGQDYWGQGTQVTVSS , the value recorded as its % inhibition of max is 99.5%

# % inhibition of max of CXCR20012 (other, Bivalent: two VHH joined by a GlySer linker; also called 137B7-35GS-137B7; not shown: C-terminal c-myc tag and His6 tag coded by pAX100) EVQLVESGGGLVQPGGSVRLSCVASGIIFRLSALGWTRQGPGKAREWVAGINSDGTTNYADPVKGRFTISRDNAKNTIYLHMDMLKPEDTAVYYCASGKYRGQGTQVTVSSGGGGSGGGGSGGGGSGGGGSGGGGSGGGGSGGGGSEVQLVESGGGLVQPGGSVRLSCVASGIIFRLSALGWTRQGPGKAREWVAGINSDGTTNYADPVKGRFTISRDNAKNTIYLHMDMLKPEDTAVYYCASGKYRGQGTQVTVSS = 99.1%

Value of measured % inhibition of max for the entry CXCR20020 (bispecific antibody, Biparatopic: two VHH joined by a GlySer linker; also called 127D1-35GS-163D2; 127D1-163D2; not shown: C-terminal c-myc tag and His6 tag coded by pAX100) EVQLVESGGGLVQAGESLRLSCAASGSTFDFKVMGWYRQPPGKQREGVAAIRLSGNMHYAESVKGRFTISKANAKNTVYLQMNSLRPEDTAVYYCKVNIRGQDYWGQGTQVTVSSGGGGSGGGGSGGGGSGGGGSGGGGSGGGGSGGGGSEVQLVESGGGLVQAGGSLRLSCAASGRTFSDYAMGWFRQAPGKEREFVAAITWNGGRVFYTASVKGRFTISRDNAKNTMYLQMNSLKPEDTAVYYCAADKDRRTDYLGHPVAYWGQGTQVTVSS : 100%

The binder listed as CXCR20036 (other, Biparatopic: two VHH joined by a GlySer linker; also called 54B12-35GS-163D2; 54B12-163D2; not shown: C-terminal c-myc tag and His6 tag coded by pAX100) EVQLVESGGGLVQAGGSLTLSCAVSGSTFRINTMGWYRRAPGKQRELVAARDRGGYINYVDSVKGRFTVSRDNAKPTMYLQMNSLKPEDTAVYYCHAGTQDRTGRNFDRWGQGTQVTVSSGGGGSGGGGSGGGGSGGGGSGGGGSGGGGSGGGGSEVQLVESGGGLVQAGGSLRLSCAASGRTFSDYAMGWFRQAPGKEREFVAAITWNGGRVFYTASVKGRFTISRDNAKNTMYLQMNSLKPEDTAVYYCAADKDRRTDYLGHPVAYWGQGTQVTVSS shows % inhibition of max equal to 98%

The reported value for CXCR20031 (bispecific antibody, Biparatopic: two VHH joined by a GlySer linker; also called 2B2-35GS-163E3; not shown: C-terminal c-myc tag and His6 tag coded by pAX100) EVQLVESGGELVQPGGSLRLSCAASGSILTINAMGWYRQAPGKQRELVVRRTRGGSTTYQDSVKGRFTISADIAKKTMYLQMNSLKPEDTAVYYCMLDDRGGVYWGQGTQVTVSSGGGGSGGGGSGGGGSGGGGSGGGGSGGGGSGGGGSEVQLVESGGGLVQPGGSLRLSCVASGRIFSSNAMGWFRQAPGKEREFVAAITWRSGGSAYYADSAKGRFTISRDNAKNTVYLQMNSLKPEDTAVYYCAAGGSSWLSFPPDYWGQGTQVTVSS in terms of % inhibition of max is 100%
